# System: PC-3
# testProtocol: Dark toxicity in human PC-3 cells assessed as reduction in cell viability at 150 uM incubated under dark for 2 hrs by MTT assay
# Type: cell-based
# studyConditions: pc-3, 2 h
property: Activity

1. O=[N+]([O-])c1ccc(-c2ccc(S[C@@H]3O[C@H](CO)[C@@H](O)[C@H](O)[C@H]3O)cc2)cc1    Non-Toxic
2. O=[N+]([O-])c1ccc(-c2ccc(OCCCS[C@@H]3O[C@H](CO)[C@@H](O)[C@H](O)[C@H]3O)cc2)cc1    Toxic
3. O=[N+]([O-])c1ccc(-c2ccc(O[C@@H]3O[C@H](CO)[C@@H](O)[C@H](O)[C@H]3O)cc2)cc1    Non-Toxic
4. O=[N+]([O-])c1ccc(-c2ccc(OCCCO[C@@H]3O[C@H](CO)[C@@H](O)[C@H](O)[C@H]3O)cc2)cc1    Toxic
5. O=[N+]([O-])c1ccc(-c2ccc(SCCCO[C@@H]3O[C@H](CO)[C@@H](O)[C@H](O)[C@H]3O)cc2)cc1    Toxic
